# target-desc: T1, UNK ZnF1-3 (human, UniProt Q9C0B0 31-174)
# T1 sequence: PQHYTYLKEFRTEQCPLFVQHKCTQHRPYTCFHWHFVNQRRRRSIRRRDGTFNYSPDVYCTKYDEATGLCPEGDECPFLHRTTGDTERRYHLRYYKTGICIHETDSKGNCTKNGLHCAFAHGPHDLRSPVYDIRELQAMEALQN
# assay-remarks: nsRBNS (natural sequence RNA bind-n-seq); RBNS binding buffer (assumed for nsRBNS): 25 mM Tris pH 7.5, 150 mM KCl, 3 mM MgCl2, 0.01% Triton X-100, 500 ug/ml BSA, 20 U/ml SUPERase-In, 4 C; UNK is unkempt and MSI1 is Musashi-1; names of the RNAs are library labels; protein concentration not given here; high values mean tight binding
The full ranking holds about 24,000 sequences; the median of “enrichment r” is about 0.99, and the highest 2% start at about 3.7. The list is a sample of the results.
quantity-measured: binding signal (enrichment R)
Please state the figure in enrichment R; there is no need to write the unit.

chr15:31385891:31385892:-_ENSMUSG00000039100_ENSMUST00000090227|mus_mus|motif|central (ssRNA) RNA: GGGAGUUCUACAGUCCGACGAUCAUUCACUCCUAAACAGACACCCCUAGGCCUUAGUCACUCAUUUCCAUCUAAGGUUCGGUAGGAUUGUCAUGAUUACAAAAUGAGGCACUCAGACAGAUAGACAGGAAUGGAGACAUACAUCAACAGAGGAUUGAGCAUCA | 1.25

Entry chr6:50805741:50805742:+_ENSG00000008196_ENST00000393655|hu_hu|FALSE|FALSE (ssRNA) RNA: GGGAGUUCUACAGUCCGACGAUCCAGGGAGGUGAGUAACGUGACAUUUGCUGCUUUGCGCCUGCCCGCGGGUAAAUUCAAACCGAUUUUUUCUAGCCUUUCUCGCAAAGAUCUCCCCCCAUUUUUCGAUUUGGCUCUUCUGAGCAACAGAGGAUUGAGCAUCA has what binding signal? 1.13
